Tested on: anxiety in the adult male rat
Assay: Suppression of anxiety in the adult male rat (Vogel anticonflict test)
Type: in vivo
Settings: PO, read-out: Anticonflict MED
Entries and their minimal effective dose

| Compound | minimal effective dose |
| --- | --- |
| O=C1CCn2c(nc3ncccc32)C1C(=O)Nc1ccccc1 (stereo not drawn) | 30 mg/kg |
| O=C1CCn2c(nc3ncccc32)C1C(=O)Nc1c(F)cccc1F (stereo not drawn) | > 10 mg/kg |
| O=C1CCN2C(=C1C(=O)Nc1c(F)cc(F)cc1F)Nc1cccnc12 | > 30 mg/kg |
| O=C1CCn2c(nc3ncccc32)C1C(=O)Nc1ccccc1F (stereo not drawn) | > 30 mg/kg |
| O=C1CCn2c(nc3ncccc32)C1C(=O)Nc1ccncc1 (stereo not drawn) | 10 mg/kg |
| O=C1CCN2C(=C1C(=O)Nc1ccncc1)Nc1cccnc12 | > 30 mg/kg |
| CN1C2=C(C(=O)Nc3ccccc3F)C(=O)CCN2c2ncccc21 | > 10 mg/kg |
| O=C1CCN2C(=C1C(=O)Nc1ccccc1F)Nc1cccnc12 | > 30 mg/kg |
| O=C1CCN2C(=C1C(=O)Nc1c(F)cccc1F)Nc1cnccc12 | ~3 mg/kg |
| COCCN1C2=C(C(=O)Nc3ccccc3F)C(=O)CCN2c2ncccc21 | > 10 mg/kg |
| O=C1CCn2c(nc3cccnc32)C1C(=O)Nc1ccccc1 (stereo not drawn) | > 30 mg/kg |
| O=C1CCn2c(nc3ncccc32)C1C(=O)Nc1c(F)cc(F)cc1F (stereo not drawn) | > 30 mg/kg |

----------
Biological target: benzodiazepine site of the GABA-A receptor
Experiment: Benzodiazepine receptor binding assay (inhibition of 3H-flunitrazepam binding)
Settings: read-out: 3H-Flunitrazepam IC50; ca. 3 nM 3H-flunitrazepam, 10-20 min at 25° C.

| Compound | Value Relation Sign | IC50, µM |
| --- | --- | --- |
| O=C1CCn2c(nc3ncccc32)C1C(=O)Nc1ccncc1 (stereo not shown) [CP #7] | = | 0.619 |
| O=C1CCn2c(nc3ncccc32)C1C(=O)Nc1c(F)cc(F)cc1F (stereo not shown) [CP #8] | = | 0.22 |
| O=C1CCn2c(nc3ncccc32)C1C(=O)Nc1ccccc1F (stereo not shown) [CP #5] | = | 0.0035 |
| O=C1CCn2c(nc3ncccc32)C1C(=O)Nc1c(F)cccc1F (stereo not shown) [CP #9] | = | 0.0301 |
| O=C1CCN2C(=C1C(=O)Nc1c(F)cc(F)cc1F)Nc1cccnc12 [CP #4] | = | 1.96 |
| O=C1CCn2c(nc3ncccc32)C1C(=O)Nc1ccccc1 (stereo not shown) [CP #6] | = | 0.0083 |
| CN1C2=C(C(=O)Nc3ccccc3F)C(=O)CCN2c2ncccc21 [compound 12] | > | 0.312 |
| COCCN1C2=C(C(=O)Nc3ccccc3F)C(=O)CCN2c2ncccc21 [compound 11] | = | 0.285 |
| O=C1CCN2C(=C1C(=O)Nc1c(F)cccc1F)Nc1cnccc12 [compound 10] | = | 0.0177 |
| O=C1CCn2c(nc3cccnc32)C1C(=O)Nc1ccccc1 (stereo not shown) [CP #2] | > | 4.35 |

----------
System: anxiety in the adult male rat
Assay: Suppression of anxiety in the adult male rat (Vogel anticonflict test)
Assay type: in vivo
Settings: IP, read-out: Anticonflict MED

| Molecule | minimal effective dose |
| --- | --- |
| O=C1CCN2C(=C1C(=O)Nc1ccncc1)Nc1cccnc12 | > 10 mg/kg |
| O=C1CCn2c(nc3ncccc32)C1C(=O)Nc1ccccc1F (stereo not shown) | 10 mg/kg |
| O=C1CCn2c(nc3ncccc32)C1C(=O)Nc1c(F)cccc1F (stereo not shown) | > 10 mg/kg |
| O=C1CCN2C(=C1C(=O)Nc1ccccc1F)Nc1cccnc12 | > 10 mg/kg |
| O=C1CCN2C(=C1C(=O)Nc1c(F)cc(F)cc1F)Nc1cccnc12 | > 10 mg/kg |
| O=C1CCn2c(nc3cccnc32)C1C(=O)Nc1ccccc1 (stereo not shown) | > 10 mg/kg |
| O=C1CCn2c(nc3ncccc32)C1C(=O)Nc1c(F)cc(F)cc1F (stereo not shown) | > 10 mg/kg |
| O=C1CCN2C(=C1C(=O)Nc1c(F)cccc1F)Nc1cnccc12 | > 10 mg/kg |
| O=C1CCn2c(nc3ncccc32)C1C(=O)Nc1ccccc1 (stereo not shown) | > 10 mg/kg |
| O=C1CCn2c(nc3ncccc32)C1C(=O)Nc1ccncc1 (stereo not shown) | 30 mg/kg |
